Cited source: ChEMBL document CHEMBL3877246

# assay: Cytotoxicity against BALB/c mouse splenocytes assessed as cell viability after 48 hrs by alamar blue assay
# Format: toxicity, Splenocyte
I'd appreciate it if you could supply CC50 at 48 h values for the items below.
Field: numeric (µM). Do not append units.

### Prompt Respond only with CC50 at 48 h recorded for FC(F)(F)c1ccc([C@H]2Nc3cccnc3[C@H]3c4ccccc4C[C@H]32)cc1 (relative stereo)
### Response 4.6

### Prompt Respond only with CC50 at 48 h recorded for "c1ccc2c(c1)Cc1c(-c3ccc4ccccc4c3)nc3cccnc3c1-2"
### Response 75.8

----------
# assay: Cytotoxicity against BALB/c mouse splenocytes assessed as cell viability after 48 hrs by alamar blue assay
# Format: toxicity, Splenocyte
assay endpoint: CC50 at 48 h (µM)
Field: numeric (µM). Do not append units.

### Prompt Respond only with CC50 at 48 h recorded for "Fc1ccc(-c2nc3cccnc3c3c2Cc2ccccc2-3)c(F)c1"
### Response 76.9

### Prompt Respond only with CC50 at 48 h recorded for "CC[C@@]1(O)C(=O)OCc2c1cc1n(c2=O)Cc2cc3ccccc3nc2-1"
### Response 0.62

### Prompt Respond only with CC50 at 48 h recorded for "c1ccc2c(c1)Cc1c(-c3ccncc3)nc3cccnc3c1-2"
### Response 19.9

### Prompt Respond only with CC50 at 48 h recorded for "CCOC(=O)c1nc2cccnc2c2c1Cc1ccccc1-2"
### Response 59.4

### Prompt Respond only with CC50 at 48 h recorded for Fc1ccc([C@H]2Nc3cccnc3[C@H]3c4ccccc4C[C@H]32)cc1F (relative stereo)
### Response 77.5

### Prompt Respond only with CC50 at 48 h recorded for "Cc1ccc(-c2nc3cccnc3c3c2Cc2ccccc2-3)cc1"
### Response 68.2

### Prompt Respond only with CC50 at 48 h recorded for "O=[N+]([O-])c1ccc(-c2nc3cccnc3c3c2Cc2ccccc2-3)cc1"
### Response 88.1

### Prompt Respond only with CC50 at 48 h recorded for Fc1cccc([C@H]2Nc3cccnc3[C@H]3c4ccccc4C[C@H]32)c1 (relative stereo)
### Response 85.3

### Prompt Respond only with CC50 at 48 h recorded for "c1ccc(-c2nc3cccnc3c3c2Cc2ccccc2-3)cc1"
### Response 90.2

----------
# assay: Selectivity index, ratio of CC50 for BALB/c mouse splenocytes to IC50 for Leishmania infantum amastigotes harboring iRFP gene infected BALB/c mouse splenocytes
# Assay type: functional
assay endpoint: Ratio CC50/IC50
API note: the answer field is a bare number with no unit suffix.

### Prompt Respond only with Ratio CC50/IC50 recorded for "c1ccc2c(c1)Cc1c(-c3ccc4ccccc4c3)nc3cccnc3c1-2"
### Response 6.4

### Prompt Respond only with Ratio CC50/IC50 recorded for "c1ccc(-c2nc3cccnc3c3c2Cc2ccccc2-3)cc1"
### Response 1.43

### Prompt Respond only with Ratio CC50/IC50 recorded for Fc1cccc([C@H]2Nc3cccnc3[C@H]3c4ccccc4C[C@H]32)c1 (relative stereo)
### Response 0.9

### Prompt Respond only with Ratio CC50/IC50 recorded for "Cc1ccc(-c2nc3cccnc3c3c2Cc2ccccc2-3)cc1"
### Response 1.17

### Prompt Respond only with Ratio CC50/IC50 recorded for "FC(F)(F)c1ccc(-c2nc3cccnc3c3c2Cc2ccccc2-3)cc1"
### Response 37.6

### Prompt Respond only with Ratio CC50/IC50 recorded for Fc1ccc([C@H]2Nc3cccnc3[C@H]3c4ccccc4C[C@H]32)cc1 (relative stereo)
### Response 19.5

### Prompt Respond only with Ratio CC50/IC50 recorded for "CCOC(=O)c1nc2cccnc2c2c1Cc1ccccc1-2"
### Response 2.4

### Prompt Respond only with Ratio CC50/IC50 recorded for "CSc1ccc(-c2nc3cccnc3c3c2Cc2ccccc2-3)cc1"
### Response 1.39

### Prompt Respond only with Ratio CC50/IC50 recorded for "Fc1ccc(-c2nc3cccnc3c3c2Cc2ccccc2-3)cc1"
### Response 68.2

### Prompt Respond only with Ratio CC50/IC50 recorded for "COc1ccc(-c2nc3cccnc3c3c2Cc2ccccc2-3)cc1"
### Response 20.1

### Prompt Respond only with Ratio CC50/IC50 recorded for "Fc1ccc(-c2nc3cccnc3c3c2Cc2ccccc2-3)c(F)c1"
### Response 12.7

### Prompt Respond only with Ratio CC50/IC50 recorded for "CC[C@@]1(O)C(=O)OCc2c1cc1n(c2=O)Cc2cc3ccccc3nc2-1"
### Response 20.7
